Where do the numbers come from? From paper PMC9963587.

# testTarget: LASV GP2 (Lassa virus, UniProt P08669)
# Sequence (P08669 260-491 limits assumed): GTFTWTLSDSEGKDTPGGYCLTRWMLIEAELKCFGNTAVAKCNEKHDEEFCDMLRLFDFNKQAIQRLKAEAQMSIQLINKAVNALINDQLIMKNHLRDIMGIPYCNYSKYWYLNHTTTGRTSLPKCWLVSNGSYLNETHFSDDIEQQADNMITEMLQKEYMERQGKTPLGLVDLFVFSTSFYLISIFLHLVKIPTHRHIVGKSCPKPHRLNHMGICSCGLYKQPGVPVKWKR
# methodSummary: biochemical
# Assay type: binding
# testSettings: read-out: ka
Labelling: kon reported below 70000 M⁻¹ s⁻¹ becomes Fulfilled; at or above becomes Not fulfilled.

Input line: Please state whether kon is below 70000 M⁻¹ s⁻¹ for `CC(C)Oc1ccc(-n2cnc3cc(/C=C\c4ccc5ccccc5c4)ccc32)cc1`
Output line: Not fulfilled

Input line: Please state whether kon is below 70000 M⁻¹ s⁻¹ for COc1ccc(-n2cnc3cc(NCc4ccc(OC)c(O)c4)ccc32)cc1 [Compound 13a]
Output line: Fulfilled

Input line: Please state whether kon is below 70000 M⁻¹ s⁻¹ for COc1ccc(-n2cnc3cc(NCc4cccc(O)c4)ccc32)cc1 [Compound 13h]
Output line: Fulfilled

Input line: Please state whether kon is below 70000 M⁻¹ s⁻¹ for COc1ccc(-n2cnc3cc(NCc4cc(OC)c(O)c(OC)c4)ccc32)cc1 [Compound 13e]
Output line: Fulfilled

Input line: Please state whether kon is below 70000 M⁻¹ s⁻¹ for `CC(C)Oc1ccc(-n2cnc3cc(/C=C\c4ccc(OC(F)F)cc4)ccc32)cc1`
Output line: Fulfilled

Input line: Please state whether kon is below 70000 M⁻¹ s⁻¹ for COc1ccc(-n2cnc3cc(NCc4ccc(O)c(OC)c4)ccc32)cc1 [Compound 13b]
Output line: Fulfilled

Input line: Please state whether kon is below 70000 M⁻¹ s⁻¹ for CC(C)Oc1ccc(-n2cnc3cc(/C=C\c4ccc(C(C)(C)O)cc4)ccc32)cc1 [LHF−535, reference compound]
Output line: Not fulfilled

Input line: Please state whether kon is below 70000 M⁻¹ s⁻¹ for `CC(C)Oc1ccc(-n2cnc3cc(/C=C\c4ccc(C(C)(C)C)cc4)ccc32)cc1`
Output line: Not fulfilled

Input line: Please state whether kon is below 70000 M⁻¹ s⁻¹ for `CC(C)Oc1ccc(-n2cnc3cc(/C=C\c4ccc(C#N)cc4)ccc32)cc1`
Output line: Fulfilled

Input line: Please state whether kon is below 70000 M⁻¹ s⁻¹ for `CC(C)Oc1ccc(-n2cnc3cc(/C=C\c4ccc(OC(F)(F)F)cc4)ccc32)cc1`
Output line: Fulfilled

Input line: Please state whether kon is below 70000 M⁻¹ s⁻¹ for COc1ccc(-n2cnc3cc(NCc4ccc(C(C)(C)C)cc4)ccc32)cc1 [Compound 13f]
Output line: Not fulfilled

Input line: Please state whether kon is below 70000 M⁻¹ s⁻¹ for COc1ccc(-n2cnc3cc(NCc4ccc(C(F)(F)F)cc4)ccc32)cc1 [Compound 13j]
Output line: Fulfilled

Input line: Please state whether kon is below 70000 M⁻¹ s⁻¹ for COc1ccc(-n2cnc3cc(NCc4ccc(Cl)c(Cl)c4)ccc32)cc1 [Compound 13i]
Output line: Fulfilled

Input line: Please state whether kon is below 70000 M⁻¹ s⁻¹ for COc1ccc(-n2cnc3cc(NCc4cc(OC)c(OC)cc4OC)ccc32)cc1 [Compound 13d]
Output line: Fulfilled

Input line: Please state whether kon is below 70000 M⁻¹ s⁻¹ for COc1ccc(-n2cnc3cc(NCc4ccc(C(C)C)cc4)ccc32)cc1 [ST−193, reference compound]
Output line: Not fulfilled

Input line: Please state whether kon is below 70000 M⁻¹ s⁻¹ for `CCOc1ccc(/C=C\c2ccc3c(c2)ncn3-c2ccc(OC(C)C)cc2)cc1`
Output line: Not fulfilled

Input line: Please state whether kon is below 70000 M⁻¹ s⁻¹ for COc1ccc(CNc2ccc3c(c2)ncn3-c2ccc(OC)cc2)cc1 [Compound 13g]
Output line: Fulfilled

Input line: Please state whether kon is below 70000 M⁻¹ s⁻¹ for `Cc1ccc(/C=C\c2ccc3c(c2)ncn3-c2ccc(OC(C)C)cc2)cc1`
Output line: Fulfilled
